Target: T1, human δ opioid receptor (human, UniProt P41143 1-372)
T1 construct: whole, on cells; membrane preparations of the transfected cells were used; also called hDOR; DOR
T1 sequence (P41143 whole entry, stated change not applied): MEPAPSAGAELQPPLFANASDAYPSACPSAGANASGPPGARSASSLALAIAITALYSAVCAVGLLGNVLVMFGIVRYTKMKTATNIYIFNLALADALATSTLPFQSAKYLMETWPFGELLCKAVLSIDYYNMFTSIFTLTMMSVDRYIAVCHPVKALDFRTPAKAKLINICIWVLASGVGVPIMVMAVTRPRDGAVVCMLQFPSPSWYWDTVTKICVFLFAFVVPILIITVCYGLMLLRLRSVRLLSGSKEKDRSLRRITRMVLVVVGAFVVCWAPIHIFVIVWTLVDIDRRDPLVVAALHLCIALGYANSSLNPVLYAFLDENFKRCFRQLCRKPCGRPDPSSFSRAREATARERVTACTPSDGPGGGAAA
Test: competition vs [3H]DPDPE, hDOR cell membranes
Square brackets hold non-standard residues; d marks the D form. Ends that are not written are not given here. * marks the point of attachment. NH(3,5-(CF3)2-benzyl) = FC(F)(F)c1cc(CN*)cc(C(F)(F)F)c1; OBzl(3,5-(CF3)2) = FC(F)(F)c1cc(CO*)cc(C(F)(F)F)c1; Dmt = Cc1cc(O)cc(C)c1C[C@H](N)C(=O)O; NHBn = c1ccc(CN*)cc1
# reported log10 of Ki; entries follow
Base-10 log of Ki, unit nM.

Record excerpt, results attached:
binder	log10 of Ki
[Dmt][dA]GFMPLW-{NH(3,5-(CF3)2-benzyl)} (also called TY032) [DmtDAlaGlyPheMetProLeuTrpNHBn(CF3)2]	-0.92
Y[dA]GFMPLW-{OBzl(3,5-(CF3)2)} (also called TY005) [TyrDAlaGlyPheMetProLeuTrpOBn(CF3)2]	0.45
[Dmt][dA]GFMPLW-NHBn (also called TY034) [DmtDAlaGlyPheMetProLeuTrpNHBn]	-1.00
Y[dA]GFMPLW-NHBn (also called TY025) [TyrDAlaGlyPheMetProLeuTrpNHBn]	-0.36

Now consider the entry below.
Lookup: Look at this binder and give its reported log10 of Ki. [Dmt][dA]GFMPLW-{OBzl(3,5-(CF3)2)} (also called TY033) [DmtDAlaGlyPheMetProLeuTrpOBn(CF3)2]
Found: -0.66
